Reference for the values: patent US12291529B2

molecular target: GLP-1 Receptor (Homo sapiens); assay: GLP-1R agonist cAMP stimulation assay (HEK293/GLP1R/CRE-LUC cells, Cisbio cAMP dynamic 2 kit); format: cell-based; conditions: Table 4
REPORTED_METRIC: EC50 (nM)

CN=S(=O)(c1ccc(-n2ccn(-c3c4c(nn3-c3cc(C)c(F)c(C)c3)CCN(C(=O)c3cc5cc(C6CCOCC6)ccc5n3[C@@]3(c5noc(=O)[nH]5)C[C@@H]3C)[C@H]4C)c2=O)c(F)c1)C1CC1 (single isomer, unassigned) :: 0.031
CCS(=O)(=NC)c1ccc(-n2ccn(-c3c4c(nn3-c3cc(C)c(F)c(C)c3)CCN(C(=O)c3cc5cc(C6CCOCC6)ccc5n3[C@@]3(c5noc(=O)[nH]5)C[C@@H]3C)[C@H]4C)c2=O)c(F)c1 (single isomer, unassigned) :: 0.023
CCS(=O)(=NC)c1ccc(-n2ccn(-c3c4c(nn3-c3cc(C)c(F)c(C)c3)CCN(C(=O)c3cc5cc([C@H]6CCOC(C)(C)C6)ccc5n3[C@@]3(c5noc(=O)[nH]5)C[C@@H]3C)[C@H]4C)c2=O)c(F)c1 (single isomer, unassigned) :: 0.024

I: Cc1cc(-n2nc3c(c2-n2ccn(-c4ccc(S5(=O)=NCCC5)cc4)c2=O)[C@H](C)N(C(=O)c2cc4cc(C5CCOCC5)ccc4n2[C@@]2(c4noc(=O)[nH]4)C[C@@H]2C)CC3)cc(C)c1F (single isomer, unassigned) [Compound 143]
II: Cc1cc(-n2nc3c(c2-n2ccn(-c4ccc(S5(=O)=NCCC5)cc4)c2=O)[C@H](C)N(C(=O)c2cc4cc(C5CCOCC5)ccc4n2[C@@]2(c4noc(=O)[nH]4)C[C@@H]2C)CC3)cc(C)c1F (single isomer, unassigned) [Compound 142]
III: CN=S(=O)(c1ccc(-n2ccn(-c3c4c(nn3-c3cc(C)c(F)c(C)c3)CCN(C(=O)c3cc5cc([C@H]6CCOC(C)(C)C6)ccc5n3[C@@]3(c5noc(=O)[nH]5)C[C@@H]3C)[C@H]4C)c2=O)c(F)c1)C1CC1 (single isomer, unassigned)
IV: Cc1cc(-n2nc3c(c2-n2ccn(-c4ccc(N5CCCS5(=O)=O)cc4)c2=O)[C@H](C)N(C(=O)c2cc4cc(C5CCOCC5)ccc4n2[C@@]2(c4noc(=O)[nH]4)C[C@@H]2C)CC3)cc(C)c1F [Compound C-4, reference compound]
Exercise: Order the records, beginning with the lowest EC50 and ending with the highest. Lab note: final answer is the ordered label list.
Solution: I, III, II, IV
(I: 0.019 nM, III: 0.03 nM, II: 0.063 nM, IV: 0.14 nM)

###

biological target: GLP-1 Receptor (Homo sapiens, UniProt P43220); assay: GLP-1R agonist cAMP stimulation assay (HEK293/GLP1R/CRE-LUC cells, Cisbio cAMP dynamic 2 kit); type: cell-based; settings: Table 3, HEK293/GLP1R/CRE-LUC cells, 30 min
Sequence (P43220 24-463, species assumed): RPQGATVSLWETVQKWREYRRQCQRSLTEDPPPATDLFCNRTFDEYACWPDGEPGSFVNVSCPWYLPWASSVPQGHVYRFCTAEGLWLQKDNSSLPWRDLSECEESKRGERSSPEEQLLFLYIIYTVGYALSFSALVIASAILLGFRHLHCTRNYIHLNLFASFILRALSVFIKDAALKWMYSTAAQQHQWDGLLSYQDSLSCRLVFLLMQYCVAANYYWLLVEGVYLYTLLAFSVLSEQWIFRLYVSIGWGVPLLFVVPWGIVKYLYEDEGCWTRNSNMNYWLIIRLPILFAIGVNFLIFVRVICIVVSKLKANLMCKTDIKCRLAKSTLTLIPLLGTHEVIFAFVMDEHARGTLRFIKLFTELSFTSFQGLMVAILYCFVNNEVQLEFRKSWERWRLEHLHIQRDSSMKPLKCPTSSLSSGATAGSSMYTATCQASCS
REPORTED_METRIC: EC50 (nM)

Cc1cc(-n2nc3c(c2-n2ccn(-c4ccc(S(C)(=N)=O)cc4)c2=O)[C@H](C)N(C(=O)c2cc4cc(C5CCOCC5)ccc4n2[C@@]2(c4noc(=O)[nH]4)C[C@@H]2C)CC3)cc(C)c1F (single isomer, unassigned) [Compound 114] :: 0.017
CCS(=O)(=NC)c1ccc(-n2ccn(-c3c4c(nn3-c3cc(C)c(F)c(C)c3)CCN(C(=O)c3cc5cc(C6CCOCC6)ccc5n3[C@@]3(c5noc(=O)[nH]5)C[C@@H]3C)[C@H]4C)c2=O)c(F)c1 (single isomer, unassigned) :: 0.023
CN=S1(=O)CCC(Oc2ccc(-n3ccn(-c4c5c(nn4-c4cc(C)c(F)c(C)c4)CCN(C(=O)c4cc6cc([C@H]7CCOC(C)(C)C7)ccc6n4[C@@]4(c6noc(=O)[nH]6)C[C@@H]4C)[C@H]5C)c3=O)cc2C2CC2)CC1 (some centres unmarked) [Compound 237] :: 0.07
Cc1cc(-n2nc3c(c2-n2ccn(-c4ccc5c(c4)CCCN=S5(=O)C4CC4)c2=O)[C@H](C)N(C(=O)c2cc4cc([C@H]5CCOC(C)(C)C5)ccc4n2[C@@]2(c4noc(=O)[nH]4)C[C@@H]2C)CC3)cc(C)c1F (single isomer, unassigned) [Compound 212] :: 0.038

I: Cc1cc(-n2nc3c(c2-n2ccn(-c4ccc(CS(C)(=N)=O)cc4F)c2=O)[C@H](C)N(C(=O)c2cc4cc(C5CCOCC5)ccc4n2[C@@]2(c4noc(=O)[nH]4)C[C@@H]2C)CC3)cc(C)c1F (single isomer, unassigned) [Compound 175]
II: Cc1cc(-n2nc3c(c2-n2ccn(-c4ccc5c(c4F)CCN=S5(C)=O)c2=O)[C@H](C)N(C(=O)c2cc4cc([C@H]5CCOC(C)(C)C5)ccc4n2[C@@]2(c4noc(=O)[nH]4)C[C@@H]2C)CC3)cc(C)c1F (single isomer, unassigned) [Compound 185]
III: Cc1cc(-n2nc3c(c2-n2ccn(-c4ccc(S(C)(=N)=O)cc4)c2=O)[C@H](C)N(C(=O)c2cc4cc(C5CCOCC5)ccn4c2C2(c4noc(=O)[nH]4)CC2)CC3)cc(C)c1F (some centres unmarked)
IV: CN=S(=O)(c1ccc(-n2ccn(-c3c4c(nn3-c3cc(C)c(F)c(C)c3)CCN(C(=O)c3cc5cc([C@H]6CCOC(C)(C)C6)ccc5n3[C@@]3(c5noc(=O)[nH]5)C[C@@H]3C)[C@H]4C)c2=O)c(F)c1NC)C1CC1 (single isomer, unassigned)
Exercise: # sort list by recorded EC50, greatest to least Lab note: final answer is the ordered label list.
Solution: III, IV, I, II
